A collection of binders and their measured IC50 (neutralization)
Target: HIV-1 Env of isolate MGRM-D-005 (subtype D) (HIV-1)
Assay: cell-based or functional assay

{"binder": "PGT-135 (antibody, V domains shown) VH: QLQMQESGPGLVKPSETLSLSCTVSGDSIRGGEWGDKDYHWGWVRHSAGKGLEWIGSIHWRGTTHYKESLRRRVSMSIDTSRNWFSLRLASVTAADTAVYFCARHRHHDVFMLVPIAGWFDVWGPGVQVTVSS VL: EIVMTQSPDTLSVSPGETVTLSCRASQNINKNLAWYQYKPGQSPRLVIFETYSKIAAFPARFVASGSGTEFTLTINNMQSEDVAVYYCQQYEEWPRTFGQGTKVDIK", "relation-qualifier": ">", "IC50 (neutralization), µg/mL": 50}
{"binder": "PGT-126 (antibody, V domains shown) VH: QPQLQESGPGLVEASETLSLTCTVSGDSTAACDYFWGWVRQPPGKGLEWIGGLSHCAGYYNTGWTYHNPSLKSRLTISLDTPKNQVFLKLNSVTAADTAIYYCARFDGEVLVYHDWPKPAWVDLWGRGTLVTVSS VL: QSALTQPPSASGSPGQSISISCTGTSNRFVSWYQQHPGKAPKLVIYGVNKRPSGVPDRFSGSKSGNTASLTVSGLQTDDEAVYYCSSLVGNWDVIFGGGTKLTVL", "relation-qualifier": "=", "IC50 (neutralization), µg/mL": 0.792}
